Listing of entries alongside the reported AC50.
Molecular target: human PAH with the R408W mutation (Homo sapiens, UniProt P00439, R408W)
Construct: expressed in transfected cells
Experiment: Cell Based Phenylalanine Flux Assay
Details: A375 cells expressing human R408W PAH; 24 hrs compound incubation; 13C-Tyrosine by LC-MS; average where tested multiple times; read-out: AC50

Examples with answers:
MOLECULE	AC50
O=C(c1nncs1)N1CCc2[nH]cnc2[C@H]1c1nc2ccccc2s1 [Example 1068]	500 to 1000 nM
Cc1nc(C(C)(C)N(C)C)oc1C(=O)N1CCc2[nH]cnc2[C@H]1c1nc2c(F)cccc2s1 [Example 2049]	1000 to 5000 nM
O=C(c1nnc(-c2ccn(C(F)F)n2)o1)N1CCc2[nH]cnc2[C@@H]1c1nc2ccccc2s1 [Example 1874]	1000 to 5000 nM
O=C([C@@H]1CC1(F)F)N1CCc2[nH]cnc2[C@@H]1c1nc2c(F)cccc2s1 [Example 1646]	1000 to 5000 nM
Cc1csc(CCC(=O)N2CCc3[nH]cnc3[C@H]2c2nc3ccccc3s2)n1 [Example 1079]	500 to 1000 nM
CC(C)(O)c1nc(C2CC2)c(C(=O)N2CCc3[nH]cnc3[C@@H]2c2nc3ccccc3s2)o1 [Example 1544]	1000 to 5000 nM

Query block: Hi! What's the reported AC50 for CCn1cnnc1C(=O)N1CCc2[nH]cnc2[C@H]1c1nc2ccccc2s1 [Example 2078] on human PAH with the R408W mutation (Homo sapiens, UniProt P00439, R408W)?
Result block: < 500 nM

---

Target: human PAH with the R408W mutation (Homo sapiens, UniProt P00439, R408W)
Construct: expressed in transfected cells
Sequence (P00439 1-452 R408W): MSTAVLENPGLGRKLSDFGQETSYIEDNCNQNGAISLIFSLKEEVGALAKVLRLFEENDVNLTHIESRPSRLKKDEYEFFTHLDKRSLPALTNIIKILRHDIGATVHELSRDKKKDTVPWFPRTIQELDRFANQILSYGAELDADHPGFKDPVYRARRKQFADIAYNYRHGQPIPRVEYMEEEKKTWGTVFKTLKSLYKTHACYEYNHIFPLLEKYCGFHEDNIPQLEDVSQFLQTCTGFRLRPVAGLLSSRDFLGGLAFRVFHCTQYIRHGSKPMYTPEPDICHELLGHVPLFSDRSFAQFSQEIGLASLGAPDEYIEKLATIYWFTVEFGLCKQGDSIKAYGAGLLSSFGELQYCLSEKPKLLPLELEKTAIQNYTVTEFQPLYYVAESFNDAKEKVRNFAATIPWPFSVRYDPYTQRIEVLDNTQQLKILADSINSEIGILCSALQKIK
Test: Cell Based Phenylalanine Flux Assay
Settings: A375 cells expressing human R408W PAH; 24 hrs compound incubation; 13C-Tyrosine by LC-MS; average where tested multiple times; read-out: AC50
READOUT NAME: AC50

Examples with answers:
ENTRY SMILES	MEASURED VALUE
Cc1cnn(C)c1-c1nnc(C(=O)N2CCc3[nH]cnc3[C@H]2c2nc3ccccc3s2)o1	< 0.5 µM
Nc1nc(C(F)(F)F)c(C(=O)N2CCc3[nH]cnc3[C@@H]2c2nc3ccccc3s2)o1	0.5 to 1 µM
Cn1cc(-c2ncc(C(=O)N3CCc4[nH]cnc4[C@@H]3c3nc4ccccc4s3)o2)cn1	1 to 5 µM
O=C(c1cnn2ccc(Cl)cc12)N1CCc2[nH]cnc2[C@H]1c1nc2cc(F)ccc2s1	0.5 to 1 µM

Now let's try a different one.
Query block: # AC50 lookup, item O=C(Cc1nccs1)N1CCc2[nH]cnc2[C@H]1c1nc2ccccc2s1
Result block: 0.5 to 1 µM

---

Biological target: human PAH with the R408W mutation (Homo sapiens, UniProt P00439, R408W)
Construct: expressed in transfected cells
Sequence (P00439 1-452 R408W): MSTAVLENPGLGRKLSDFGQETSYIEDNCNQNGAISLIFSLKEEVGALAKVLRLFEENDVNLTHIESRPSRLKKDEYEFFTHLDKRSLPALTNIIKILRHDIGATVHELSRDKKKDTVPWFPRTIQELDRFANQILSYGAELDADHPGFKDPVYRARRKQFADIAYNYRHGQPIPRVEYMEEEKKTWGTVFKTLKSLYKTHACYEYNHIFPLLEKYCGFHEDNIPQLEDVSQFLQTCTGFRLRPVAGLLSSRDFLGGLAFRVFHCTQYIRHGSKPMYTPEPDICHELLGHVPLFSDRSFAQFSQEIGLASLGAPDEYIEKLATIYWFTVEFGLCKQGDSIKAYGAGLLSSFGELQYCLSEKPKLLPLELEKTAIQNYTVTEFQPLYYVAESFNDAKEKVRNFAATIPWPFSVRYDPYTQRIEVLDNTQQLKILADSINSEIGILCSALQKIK
Assay: Cell Based Phenylalanine Flux Assay
Conditions: A375 cells expressing human R408W PAH; 24 hrs compound incubation; 13C-Tyrosine by LC-MS; average where tested multiple times; read-out: AC50
READOUT NAME: AC50

Examples with answers:
COMPOUND	READOUT NAME	MEASURED VALUE
O=C(c1ocnc1-c1ccccn1)N1CCc2[nH]cnc2[C@H]1c1nc2c(F)cccc2s1	AC50	500 to 1000 nM
O=C(c1ocnc1-c1ccccn1)N1CCc2[nH]cnc2[C@@H]1c1nc2ccccc2s1	AC50	> 5000 nM
CC(O)(c1nc(C(F)(F)F)c(C(=O)N2CCc3[nH]cnc3[C@@H]2c2nc3ccccc3s2)o1)C1CC1 (single isomer, unassigned) [Example 1564]	AC50	< 500 nM

Query block: # AC50 lookup, item Cc1nc(C(C)(C)O)oc1C(=O)N1CCc2[nH]cnc2[C@H]1c1nc2ccccc2s1
Result block: < 500 nM

Query block: # AC50 lookup, item CC(O)c1nc(Br)c(C(=O)N2CCc3[nH]cnc3[C@@H]2c2nc3c(F)cccc3s2)o1 (single isomer, unassigned) [Example 2060]
Result block: 500 to 1000 nM

Query block: # AC50 lookup, item O=C(c1nnc(-c2ccc(F)cn2)o1)N1CCc2[nH]cnc2[C@@H]1c1nc2ccccc2s1
Result block: 1000 to 5000 nM

Query block: # AC50 lookup, item Cn1nc(C(C)(C)C#N)nc1C(=O)N1CCc2[nH]cnc2[C@H]1c1nc2c(F)cccc2s1
Result block: 500 to 1000 nM

Query block: # AC50 lookup, item O=C(c1cn[nH]c1C(F)F)N1CCc2[nH]cnc2[C@@H]1c1nc2c(F)cccc2s1
Result block: 1000 to 5000 nM

Query block: # AC50 lookup, item O=C(c1nnc(-c2ccn(C(F)F)n2)o1)N1CCc2[nH]cnc2[C@@H]1c1nc2c(F)cccc2s1
Result block: 1000 to 5000 nM

Query block: # AC50 lookup, item Cn1ccc(-c2nnc(C(=O)N3CCc4[nH]cnc4[C@H]3c3nc4ccccc4s3)o2)n1
Result block: < 500 nM

Query block: # AC50 lookup, item Cc1nc(-c2cnn(C)c2)oc1C(=O)N1CCc2[nH]cnc2[C@H]1c1nc2ccccc2s1
Result block: < 500 nM

Query block: # AC50 lookup, item Cn1cc(-c2nnc(C(=O)N3CCc4[nH]cnc4[C@H]3c3nc4c(F)cccc4s3)o2)cn1
Result block: < 500 nM

Query block: # AC50 lookup, item COc1ccn2ncc(C(=O)N3CCc4[nH]cnc4[C@@H]3c3nc4c(F)cccc4s3)c2c1
Result block: 1000 to 5000 nM

Query block: # AC50 lookup, item CC(C)(F)c1ncc(C(=O)N2CCc3[nH]cnc3[C@H]2c2nc3c(F)cccc3s2)o1
Result block: < 500 nM

Query block: # AC50 lookup, item O=C(c1ncc(Cl)s1)N1CCc2[nH]cnc2[C@@H]1c1nc2ccc(Br)cc2[nH]1
Result block: > 5000 nM

Query block: # AC50 lookup, item O=C(CCC1CC1)N1CCc2[nH]cnc2[C@H]1c1nc2ccc(Br)cc2s1
Result block: < 500 nM

---

Listing of entries alongside the reported AC50.
Biological target: human PAH with the R408W mutation (Homo sapiens, UniProt P00439, R408W)
Construct: expressed in transfected cells
Experiment: Cell Based Phenylalanine Flux Assay
Conditions: A375 cells expressing human R408W PAH; 24 hrs with compound; 13C-Tyrosine by LC-MS; average where tested multiple times; read-out: AC50

Examples with answers:
COMPOUND	AC50
Cc1nnc(C(=O)N2CCc3[nH]cnc3[C@H]2c2nc3cc(Br)ccc3[nH]2)s1 (single isomer, unassigned)	1 to 5 µM
O=C(c1nccs1)N1CCc2[nH]cnc2C1c1nc2cc(F)ccc2s1 (stereo not shown)	> 5 µM

Query block: Hi! What's the reported AC50 for Cc1nnc(CC(=O)N2CCc3[nH]cnc3[C@H]2c2nc3ccccc3s2)s1 (single isomer, unassigned) on human PAH with the R408W mutation (Homo sapiens, UniProt P00439, R408W)?
Result block: 1 to 5 µM

Query block: Hi! What's the reported AC50 for Cc1nc(-c2ccccn2)sc1C(=O)N1CCc2[nH]cnc2C1c1nc2ccccc2s1 (stereo not shown) on human PAH with the R408W mutation (Homo sapiens, UniProt P00439, R408W)?
Result block: 1 to 5 µM

Query block: Hi! What's the reported AC50 for Cn1nc(COC(F)(F)F)cc1C(=O)N1CCc2[nH]cnc2C1c1nc2c(F)cccc2s1 (stereo not shown) on human PAH with the R408W mutation (Homo sapiens, UniProt P00439, R408W)?
Result block: 1 to 5 µM

Query block: Hi! What's the reported AC50 for CC(C)(O)c1noc(C(=O)N2CCc3[nH]cnc3C2c2nc3c(F)cccc3s2)n1 (stereo not shown) on human PAH with the R408W mutation (Homo sapiens, UniProt P00439, R408W)?
Result block: > 5 µM

Query block: Hi! What's the reported AC50 for O=C(Cc1nccs1)N1CCc2[nH]cnc2C1c1nc2ccc(Br)cc2s1 (stereo not shown) on human PAH with the R408W mutation (Homo sapiens, UniProt P00439, R408W)?
Result block: > 5 µM
